test.system: T1, B3GNT2 (Homo sapiens, UniProt Q9NY97)
T1 construct: The respective ORFs of candidate genes [CD274 (NM_014143), MCL1 (NM_021960), JUNB (NM_002229), and B3GNT2 (NM_006577)] were synthesized; expressed in transfected cells; host or cells: A375 melanoma cells (lentiviral ORF overexpression)
T1 sequence (Q9NY97 1-397): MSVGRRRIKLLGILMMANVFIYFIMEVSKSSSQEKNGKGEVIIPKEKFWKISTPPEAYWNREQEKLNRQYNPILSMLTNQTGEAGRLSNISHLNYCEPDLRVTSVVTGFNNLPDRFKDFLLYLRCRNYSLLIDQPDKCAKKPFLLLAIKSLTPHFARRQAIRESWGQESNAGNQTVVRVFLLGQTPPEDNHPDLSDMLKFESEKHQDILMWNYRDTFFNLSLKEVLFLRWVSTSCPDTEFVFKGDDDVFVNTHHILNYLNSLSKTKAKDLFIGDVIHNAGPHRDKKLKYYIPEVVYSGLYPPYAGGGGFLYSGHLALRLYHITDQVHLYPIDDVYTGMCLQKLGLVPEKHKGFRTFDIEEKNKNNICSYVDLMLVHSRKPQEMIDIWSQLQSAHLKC
measurement.protocol: Co-IP of FLAG-tagged B3GNT2 followed by mass spectrometry
Assay type: cell-based
Design: unit not given here
conditions: Co-IP with IgG control antibody, C-terminally FLAG-tagged B3GNT2; mass spectrometry count, unit not given
measure: C-term IgG

[[record]]
molecule = "SERPINE2 (protein) SHFNPLSLEELGSNTGIQVFNQIVKSRPHDNIVISPHGIASVLGMLQLGADGRTKKQLAMVMRYGVNGVGKILKKINKAIVSKKNKDIVTVANAVFVKNASEIEVPFVTRNKDVFQCEVRNVNFEDPASACDSINAWVKNETRDMIDNLLSPDLIDGVLTRLVLVNAVYFKGLWKSRFQPENTKKRTFVAADGKSYQVPMLAQLSVFRCGSTSAPNDLWYNFIELPYHGESISMLIALPTESSTPLSAIIPHISTKTIDSWMSIMVPKRVQVILPKFTAVAQTDLKEPLKVLGITDMFDSSKANFAKITTGSENLHVSHILQKAKIEVSEDGTKASAATTAILIARSSPPWFIVDRPFLFFIRHNPTGAVLFMGQINKP"
test_value = 0


Alright, here's another molecule for you.
Input: I'd like to know its C-term IgG. The molecule in question is DNAJA3 (protein) GVSLTGTKHNPFICTASFHTSAPLAKEDYYQILGVPRNASQKEIKKAYYQLAKKYHPDTNKDDPKAKEKFSQLAEAYEVLSDEVKRKQYDAYGSAGFDPGASGSQHSYWKGGPTVDPEELFRKIFGEFSSSSFGDFQTVFDQPQEYFMELTFNQAAKGVNKEFTVNIMDTCERCNGKGNEPGTKVQHCHYCGGSGMETINTGPFVMRSTCRRCGGRGSIIISPCVVCRGAGQAKQKKRVMIPVPAGVEDGQTVRMPVGKREIFITFRVQKSPVFRRDGADIHSDLFISIAQALLGGTARAQGLYETINVTIPPGTQTDQKIRMGGKGIPRINSYGYGDHYIHIKIRVPKRLTSRQQSLILSYAEDETDVEGTVNGVTLTSSGKRSTGN
Output: 0
